// provenance: PubChem BioAssay AID1159580

# normalized growth listing for each entry below
assay notes: chemical genetic growth profiling, strain panel (AID 1159580);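 note: tested at 20 µM; growth read once vehicle control cultures reached saturation at 30 °C; 1 = growth at the plate median or of vehicle wells; lower values mean less growth of the strain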
condition label: S. cerevisiae deletion strains, growth OD, locus YDL192W, strain arf1, active compounds read low
Hit rate of the full screen: of about 5,500 compounds, about 2,000 (36%) were called active. About 18% were inconclusive and are not listed. The list shows a part of the results.
Answer with a bare number; do not write a unit.

molecule	assay readout	measured number
COc1ccc(Cl)cc1C(=O)NCCc1ccc(S(=O)(=O)NC(=O)NC2CCCCC2)cc1	normalized growth	0.997
CCOC(=O)NC1=C(C2CC2)C(=O)C(NC(=O)OCC)=C(C2CC2)C1=O	normalized growth	0.991
O=c1c(O)c(-c2ccc(O)cc2O)oc2cc(O)cc(O)c12	normalized growth	0.974

Task: Item C[C@]12CCC3c4ccc(O)cc4CCC3C1C[C@@H](O)[C@@H]2O (some centres undefined) has what recorded normalized growth?
Result: 0.985

Task: Item COc1ccc2c3c1OC1C(O)CC=C4C(C2)N(C)CCC431 (centres undefined) has what recorded normalized growth?
Result: 1.02

Task: Item Oc1ccc2c(c1)OCC1(O)Cc3cc(O)c(O)cc3C21 (centres undefined) has what recorded normalized growth?
Result: 1.01

Task: Item CCCC(C)(COC(N)=O)COC(=O)NC(C)C (centres undefined) has what recorded normalized growth?
Result: 0.965

Task: Item CC(C)[N+](C)(CCC(C(N)=O)(c1ccccc1)c1ccccc1)C(C)C has what recorded normalized growth?
Result: 1

Task: Item COc1cc(OC)c2c(=O)c(OC)c(-c3ccc(OC)c(OC)c3)oc2c1 has what recorded normalized growth?
Result: 0.987

* * *

assay notes: chemical genetic growth profiling, strain panel (AID 1159580);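 note: tested at 20 µM; growth read once vehicle control cultures reached saturation at 30 °C; 1 = growth at the plate median or of vehicle wells; lower values mean less growth of the strain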
condition label: S. cerevisiae deletion strains, growth OD, locus YBL061C, strain skt5
Hit rate of the full screen: of about 5,500 compounds, about 2,000 (36%) were called active. Inconclusive results (about 18%) are left out. Cut-off read from the data, not from the text of the source: active = normalized growth mostly below about 0.91 (no sharp cut-off); inconclusive = no clear call, values can overlap the other calls; inactive = mostly above about 0.92. The list shows a part of the results.
Outcomes you can answer with include only these: Y (active), N (inactive)

Worked set:
molecule	discrete label
O=c1ccc2c(O)c3ccoc3cc2o1	N
COC1=CC(=O)C(O)=C/C1=C\C=C\c1ccccc1	Y
COc1ccc2ccc(=O)oc2c1	N

Task: Could you kindly confirm the outcome this assay logged for COc1ccc(Cl)cc1C(=O)NCCc1ccc(S(=O)(=O)NC(=O)NC2CCCCC2)cc1 ?
Result: N

Task: Could you kindly confirm the outcome this assay logged for CCCCCC(=O)Cc1cc(O)cc(O)c1C(=O)Oc1cc(CC(=O)CCCCC)c(C(=O)O)c(OC)c1 ?
Result: N

Task: Could you kindly confirm the outcome this assay logged for CC/C(=C(/CC)c1ccc(O)cc1)c1ccc(O)cc1 ?
Result: N

Task: Could you kindly confirm the outcome this assay logged for COc1cc2occc2c2oc(=O)ccc12 ?
Result: N

Task: Could you kindly confirm the outcome this assay logged for CN[C@@H]1[C@@H](O)C(OC2[C@@H](N)C[C@@H](N)[C@H](O[C@H]3O[C@H](C(C)O)[C@@H](O)[C@H](O)[C@H]3N)[C@H]2O)OC[C@]1(C)O (some centres not stated) ?
Result: N

* * *

assay notes: chemical genetic growth profiling, strain panel (AID 1159580);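 note: tested at 20 µM; growth read once vehicle control cultures reached saturation at 30 °C; 1 = growth at the plate median or of vehicle wells; lower values mean less growth of the strain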
condition label: S. cerevisiae deletion strains, growth OD, locus YJR075W, strain HOC1, active compounds read low
Out of some 5,500 compounds screened, about 2,000 (36%) were called active. Roughly 18% stayed inconclusive and do not appear here. Some of the results follow.
# normalized growth listing for each entry below
Answer with a bare number; do not write a unit.

Some solved cases for reference:
compound	measured number
CCc1cccc(CC)c1N(COC)C(=O)CCl	1.01
CC(C)(C)NCC(O)c1cc(O)cc(O)c1 (stereo not drawn)	0.98
CC12CCC3c4ccc(OC(=O)c5ccccc5)cc4CCC3C1CCC2O (stereo not drawn)	1.01
Cc1ccc(-c2csc(-c3ccc(Oc4ccc(C(F)(F)F)cn4)cc3)n2)c(C)c1	1.03

Task: Item N#Cc1ccc(-c2csc(-c3ccc(Oc4ccc(C(F)(F)F)cn4)cc3)n2)cc1 has what recorded normalized growth?
Result: 1.03

Task: Item C[C@]12CCC3c4ccc(O)cc4CCC3C1CC[C@@H]2O (stereo partly drawn) has what recorded normalized growth?
Result: 1.02

Task: Item CCCn1c(=O)c2[nH]c(C3CCCC3)nc2n(CCCOC(=O)c2ccc(S(=O)(=O)F)cc2)c1=O has what recorded normalized growth?
Result: 0.994

Task: Item CC(C)C1COc2cc3oc(=O)ccc3cc2O1 (stereo not drawn) has what recorded normalized growth?
Result: 0.688
